Source of measurements: PubChem BioAssay AID485275

Experiment: antifungal drug efflux pump blockers, triplex strains – S. cerevisiae, Nile Red, multiplex, primary screen (AID 485275);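 further: Nile Red retained in pooled yeast measured as flow cytometry median fluorescence; higher means more Nile Red kept so more efflux inhibition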
Conditions: S. cerevisiae Candida pump triplex, at 10 µM
About 1,400 (0.42%) of roughly 330,000 compounds were called active.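 How the source made its calls: active means plate passing quality check with inhibition over a set limit, or well fluorescence over plate mean plus 4 SD; inactive means the rest.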 This excerpt belongs to a sample that is enriched for actives.
A correct response names exactly one class from active, inactive

Solved cases below.
molecule	labelClass
Cc1nn(C)cc1C(=O)c1ccccc1	inactive
COc1ccc(CCNC(=O)C(=O)NCC2OCCN2S(=O)(=O)c2ccc(F)cc2)cc1OC (stereo not drawn)	inactive
CCn1c(SCC(=O)N/N=C/c2ccccc2OCC(=O)O)nnc1-c1ccc(C(C)(C)C)cc1	inactive
COc1ccc(OCC(=O)NNC(=O)C2CCC2)cc1	inactive
NNC(=O)COc1ccc(C2SCCS2)cc1	active
CC(=O)Nc1ccc(/C(C)=N/NC(=O)CN(c2ccccc2Br)S(C)(=O)=O)cc1	inactive
CSCCC(NC(=O)COc1ccccc1)C(=O)OCCOc1ccc(F)cc1 (stereo not drawn)	inactive
CCOC(OCC)c1ccc(/C=C\c2nccc(N)n2)cc1	inactive
COc1ccccc1/C=N/N1CCN(Cc2ccccc2Cl)CC1	inactive
CC1CCCC(N2CCN(C(=O)c3ccc(F)cc3)CC2)C1 (stereo not drawn)	inactive

Lab log entry: Cc1cc(C(=O)Nc2ccc(C)c(S(=O)(=O)N3CCOCC3)c2)c2ccccc2n1 — outcome as called in the assay? active

Kindly provide the recorded test outcome for the following molecule: O=C(O)c1ccccc1-c1ccccc1C(=O)Nc1ccccc1Br inactive

Please let me know the test result on file for CC(C)N1CCC(N2CCN(Cc3cccnc3)CC2CCO)CC1 (stereo not drawn) . inactive
